Reported IC50 values follow for various compounds
# System: PDC KRAS tumor spheroids with HUVEC/MSC, viability
# TEST_DETAILS: Anticancer human tumor 349418-098-R-PDC patient-derived lung adenocarcinoma cell line growth inhibition [KRAS2]
# CONDITION_LABEL: curve of first compound; second compound 10 µM

Before answering, review these 9 worked examples.
COc1cc2nccc(Oc3ccc(NC(=O)C4(C(=O)Nc5ccc(F)cc5)CC4)cc3)c2cc1OC + C=CC(=O)N1CCN(c2nc(=O)n(-c3c(C)ccnc3C(C)C)c3nc(-c4c(O)cccc4F)c(F)cc23)C(C)C1: < 31.6 nM
Cn1ncnc1[C@H]1c2n[nH]c(=O)c3cc(F)cc(c23)N[C@@H]1c1ccc(F)cc1 + CC1OCC2(CCN(c3cnc(Sc4ccnc(N)c4Cl)c(N)n3)CC2)C1N: > 100 nM
COc1cc2nccc(Oc3ccc(NC(=O)C4(C(=O)Nc5ccc(F)cc5)CC4)cc3)c2cc1OC + CC1OCC2(CCN(c3cnc(Sc4ccnc(N)c4Cl)c(N)n3)CC2)C1N: 1350 nM
CC(=O)Nc1cccc(-n2c(=O)n(C3CC3)c(=O)c3c(Nc4ccc(I)cc4F)n(C)c(=O)c(C)c32)c1 + C=CC(=O)N1CCN(c2nc(=O)n(-c3c(C)ccnc3C(C)C)c3nc(-c4c(O)cccc4F)c(F)cc23)C(C)C1: < 0.1 nM
CC1(C)CCC(CN2CCN(c3ccc(C(=O)NS(=O)(=O)c4ccc(NCC5CCOCC5)c([N+](=O)[O-])c4)c(Oc4cnc5[nH]ccc5c4)c3)CC2)=C(c2ccc(Cl)cc2)C1 + CC1OCC2(CCN(c3cnc(Sc4ccnc(N)c4Cl)c(N)n3)CC2)C1N: 1250 nM
O=C(c1cc(Cc2n[nH]c(=O)c3ccccc23)ccc1F)N1CCN(C(=O)C2CC2)CC1 + C=CC(=O)N1CCN(c2nc(=O)n(-c3c(C)ccnc3C(C)C)c3nc(-c4c(O)cccc4F)c(F)cc23)C(C)C1: < 31.6 nM
CC(C)NCC(C(=O)N1CCN(c2ncnc3c2C(C)CC3O)CC1)c1ccc(Cl)cc1 (stereo not given) + C=CC(=O)N1CCN(c2nc(=O)n(-c3c(C)ccnc3C(C)C)c3nc(-c4c(O)cccc4F)c(F)cc23)C(C)C1: < 31.6 nM
CC(C)n1nc(-c2ccc3oc(N)nc3c2)c2c(N)ncnc21 + COc1cc2nc(C)nc(NC(C)c3cc(N)cc(C(F)(F)F)c3)c2cc1OC1CCOC1: < 0.316 nM
CC(C)NCC(C(=O)N1CCN(c2ncnc3c2C(C)CC3O)CC1)c1ccc(Cl)cc1 (stereo not given) + COc1cc2nc(C)nc(NC(C)c3cc(N)cc(C(F)(F)F)c3)c2cc1OC1CCOC1: < 31.6 nM

Let us examine a further case.
[ask] Look up IC50 for this compound: CC(C)NCC(C(=O)N1CCN(c2ncnc3c2C(C)CC3O)CC1)c1ccc(Cl)cc1 (stereo not given) + CNCc1ccccc1-c1csc(C(C)Nc2nc(C)nc3cc(OC)c(OC)cc23)c1
[reply] < 31.6 nM

* * *

# Tested on: PDC KRAS tumor spheroids with HUVEC/MSC, viability
# TEST_DETAILS: Anticancer human tumor 349418-098-R-PDC cell line growth inhibition [KRAS2]; active = viability on the fitted dose curve at most 10% of control; inactive = the rest;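 further: spheroids exposed to compounds for seven days before readout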
# CONDITION_LABEL: second compound 0.1 µM; first compound 0.0316 µM
# Source text: Multicellular complex tumor spheroid response to RAS pathway inhibitors in combination with a targeted agents in patient-derived cell lines with oncogenic KRAS variants from multiple cancer types A high-throughput screen of multi-cell type tumor spheroids was designed to identify active combinations of targeted small molecules and KRAS pathway inhibitors. […] Compounds. […] If the clinical Cmax for an agent had not been determined, the highest concentration tested was 10 microM. […]
Just give me one of these, please: label 1 = active, label 0 = inactive

Worked set:
CCNC(=O)CC1N=C(c2ccc(Cl)cc2)c2cc(OC)ccc2-n2c(C)nnc21 (stereo not given) + C=CC(=O)N1CCN(c2nc(OCC3CCCN3C)nc3c2CCN(c2cccc4cccc(C)c24)C3)CC1CC#N: label 0
COc1cc2nccc(Oc3ccc(NC(=O)C4(C(=O)Nc5ccc(F)cc5)CC4)cc3)c2cc1OC + CNCc1ccccc1-c1csc(C(C)Nc2nc(C)nc3cc(OC)c(OC)cc23)c1: label 0
COc1cc2nccc(Oc3ccc(NC(=O)C4(C(=O)Nc5ccc(F)cc5)CC4)cc3)c2cc1OC + C=CC(=O)N1CCN(c2nc(OCC3CCCN3C)nc3c2CCN(c2cccc4cccc(C)c24)C3)CC1CC#N: label 0
CN(C)C/C=C/C(=O)Nc1cc2c(Nc3ccc(F)c(Cl)c3)ncnc2cc1O[C@H]1CCOC1 + C=CC(=O)N1CCN(c2nc(OCC3CCCN3C)nc3c2CCN(c2cccc4cccc(C)c24)C3)CC1CC#N: label 0

Would you kindly look at the next entry?
[ask] Short answer needed: outcome of this test for CC(=O)Nc1cccc(-n2c(=O)n(C3CC3)c(=O)c3c(Nc4ccc(I)cc4F)n(C)c(=O)c(C)c32)c1 + CNCc1ccccc1-c1csc(C(C)Nc2nc(C)nc3cc(OC)c(OC)cc23)c1 ?
[reply] label 1

* * *

# Tested on: PDC KRAS tumor spheroids with HUVEC/MSC, viability
# TEST_DETAILS: Anticancer human tumor 349418-098-R-PDC cell line growth inhibition [KRAS2];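 further: spheroids exposed to compounds for seven days before readout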
# CONDITION_LABEL: second compound 0.1 µM; first compound 0.0316 µM; stronger effect = lower value
# From the text: Multicellular complex tumor spheroid response to RAS pathway inhibitors in combination with a targeted agents in patient-derived cell lines with oncogenic KRAS variants from multiple cancer types A high-throughput screen of multi-cell type tumor spheroids was designed to identify active combinations of targeted small molecules and KRAS pathway inhibitors. […] Compounds. […] If the clinical Cmax for an agent had not been determined, the highest concentration tested was 10 microM. […]
Field: label. Allowed values: satisfied (viability, T/C < 70%) or not satisfied (viability, T/C >= 70%).

Worked set:
COc1cc2nccc(Oc3ccc(NC(=O)C4(C(=O)Nc5ccc(F)cc5)CC4)cc3)c2cc1OC + CC1OCC2(CCN(c3cnc(Sc4ccnc(N)c4Cl)c(N)n3)CC2)C1N: not satisfied
CCN1CCN(Cc2ccc(Nc3ncc(F)c(-c4cc(F)c5nc(C)n(C(C)C)c5c4)n3)nc2)CC1 + C=CC(=O)N1CCN(c2nc(=O)n(-c3c(C)ccnc3C(C)C)c3nc(-c4c(O)cccc4F)c(F)cc23)C(C)C1: satisfied
CC(=O)Nc1cccc(-n2c(=O)n(C3CC3)c(=O)c3c(Nc4ccc(I)cc4F)n(C)c(=O)c(C)c32)c1 + C=CC(=O)N1CCN(c2nc(=O)n(-c3c(C)ccnc3C(C)C)c3nc(-c4c(O)cccc4F)c(F)cc23)C(C)C1: satisfied
CC(=O)OC12COC1CC(O)C1(C)C(=O)C(O)C3=C(C)C(OC(=O)C(O)C(NC(=O)OC(C)(C)C)c4ccccc4)CC(O)(C(OC(=O)c4ccccc4)C21)C3(C)C (stereo not given) + COc1cc2nc(C)nc(NC(C)c3cc(N)cc(C(F)(F)F)c3)c2cc1OC1CCOC1: satisfied
CC1COCCN1c1cc(-c2ccnn2C)c2ccnc(-c3ccn[nH]3)c2n1 (stereo not given) + COc1cc2nc(C)nc(NC(C)c3cc(N)cc(C(F)(F)F)c3)c2cc1OC1CCOC1: satisfied
O=C(c1cc(Cc2n[nH]c(=O)c3ccccc23)ccc1F)N1CCN(C(=O)C2CC2)CC1 + COc1cc2nc(C)nc(NC(C)c3cc(N)cc(C(F)(F)F)c3)c2cc1OC1CCOC1: not satisfied
CCNC(=O)CC1N=C(c2ccc(Cl)cc2)c2cc(OC)ccc2-n2c(C)nnc21 (stereo not given) + C=CC(=O)N1CCN(c2nc(=O)n(-c3c(C)ccnc3C(C)C)c3nc(-c4c(O)cccc4F)c(F)cc23)C(C)C1: not satisfied
CC(C)n1nc(-c2ccc3oc(N)nc3c2)c2c(N)ncnc21 + C=CC(=O)N1CCN(c2nc(=O)n(-c3c(C)ccnc3C(C)C)c3nc(-c4c(O)cccc4F)c(F)cc23)C(C)C1: satisfied
COc1cc(Nc2ncc3c(n2)-c2ccc(Cl)cc2C(c2c(F)cccc2OC)=NC3)ccc1C(=O)O + C=CC(=O)N1CCN(c2nc(=O)n(-c3c(C)ccnc3C(C)C)c3nc(-c4c(O)cccc4F)c(F)cc23)C(C)C1: satisfied
CN(C)C/C=C/C(=O)Nc1cc2c(Nc3ccc(F)c(Cl)c3)ncnc2cc1O[C@H]1CCOC1 + C=CC(=O)N1CCN(c2nc(=O)n(-c3c(C)ccnc3C(C)C)c3nc(-c4c(O)cccc4F)c(F)cc23)C(C)C1: not satisfied

[ask] Record CC1OCC2(CCN(c3cnc(Sc4ccnc(N)c4Cl)c(N)n3)CC2)C1N (stereo not given) + C=CC(=O)N1CCN(c2nc(OCC3CCCN3C)nc3c2CCN(c2cccc4cccc(C)c24)C3)CC1CC#N : is its viability, T/C strictly below 70%?
[reply] not satisfied

[ask] Now give it for COc1cc2nccc(Oc3ccc(NC(=O)C4(C(=O)Nc5ccc(F)cc5)CC4)cc3)c2cc1OC + C=CC(=O)N1CCN(c2nc(=O)n(-c3c(C)ccnc3C(C)C)c3nc(-c4c(O)cccc4F)c(F)cc23)C(C)C1 too.
[reply] not satisfied
